The measurements presented in this section are drawn from paper PMC4447534.

Tested on: Vero cells
Assay: Cytotoxicity for Vero cells
Type: cell-based
Settings: one experiment in triplicate, means ± S.D.
READOUT_LABEL: Cytotoxicity ED50

Past entries and their recorded results:
Entry under test: N#CSCCOc1cccc(Oc2ccncc2)c1 [Compound 62, 3-(4-Pyridyloxy)phenoxyethyl Thiocyanate] . Its Cytotoxicity ED50 was > 200.0 µM

Entry under test: N#CSCCOc1ccc(Br)cc1Br [Compound 68, 2,4-Dibromophenoxyethyl Thiocyanate] . Its Cytotoxicity ED50 was > 50.0 µM

Entry under test: N#CSCCOc1ccc(Oc2cccc(C(F)(F)F)c2)cc1 [Compound 15] . Its Cytotoxicity ED50 was > 50.0 µM

Entry under test: COc1ccccc1Oc1cccc(OCCSC#N)c1 [Compound 49] . Its Cytotoxicity ED50 was 115.7 ± 39.8 µM

Entry under test: N#CSCCOc1cccc(Oc2ccc(Cl)cc2)c1 [Compound 48] . Its Cytotoxicity ED50 was 98.4 ± 5.8 µM

Next:
Entry under test: N#CSCCOc1cccc(Oc2ccccc2Cl)c1 [Compound 46] . Its Cytotoxicity ED50 was > 50.0 µM

Entry under test: Cc1ccc(S(=O)(=O)OCCOc2cccnc2)cc1 [Compound 71, 3-Pyridyloxyethyl 4-Toluenesulfonate] . Its Cytotoxicity ED50 was > 200 µM

Entry under test: N#CSCCOc1cccc(Oc2ccccn2)c1 [Compound 60, 3-(2-Pyridyloxy)phenoxyethyl Thiocyanate] . Its Cytotoxicity ED50 was > 200.0 µM

Entry under test: N#CSCCOc1cccc(Oc2cccnc2)c1 [Compound 61] . Its Cytotoxicity ED50 was 124.0 ± 12.0 µM

----------
System: Vero cells
Test: Cytotoxicity for Vero cells
Format: cell-based
Details: one experiment in triplicate, means ± S.D.
Each entry below carries its recorded Cytotoxicity ED50.

Entry under test: N#CSCCOc1ccc(Oc2ccccn2)cc1 . Its Cytotoxicity ED50 was > 200.0 µM

Entry under test: N#CSCCOc1cccc(Oc2cccc(Cl)c2)c1 . Its Cytotoxicity ED50 was > 200.0 µM

Next:
Entry under test: N#CSCCOc1ccc(Oc2ccc(C(F)(F)F)cc2)cc1 . Its Cytotoxicity ED50 was > 50.0 µM

Entry under test: [N-]=[N+]=NCCOc1ccc(Oc2ccccc2)cc1 [Compound 64, 4-Phenoxyphenoxyethyl Azide] . Its Cytotoxicity ED50 was > 200.0 µM
